compounds and their reported %Inh
Tested on: SBK1
Conditions: concentration: 1 μM, replicates: in singlicate; n = 1;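 note: KINOMEscan kinase panel screen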
Provide only the numeric value, understood in %.

The recorded %Inh with SBK1 for COc1ccccc1-c1ccc2c(NC(=O)C3CC3)n[nH]c2n1 was 68

Here O=C1NC(=O)C(N2CCc3ccccc32)=C1c1ccccc1Cl was tested on SBK1, and its %Inh came to 69

Noted %Inh for CC(=O)Nc1nc2cnc(Nc3cc(NC(=O)c4cccc(CCC#N)c4)ccc3C)nc2s1 , tested on SBK1: 0

Summary line: O=C(O)COc1ncnc2cc(-c3ccc4[nH]ncc4c3)sc12 , SBK1, reported %Inh = 45

Field %Inh (SBK1), entry C[C@@H]1CCCCN1c1cc(-c2ccc3c(N)n[nH]c3c2)nc(N)n1 : 0

# Cc1cccc(-c2nc(Nc3ccncc3)c3ccccc3n2)n1 with SBK1: %Inh is 0

Assay SBK1, sample CN1C(=O)C(Nc2ccc(Cl)c(C(=O)O)c2)=C(c2ccc(Cl)cc2)C1=O , %Inh read: 24

Reading of %Inh for CS(=O)(=O)c1ccc(-c2nc3n(c2-c2ccncc2)CCC3)cc1 with SBK1: 5

----------
System: TIE2
Construct: gene TEK
Conditions: concentration: 1 μM, replicates: in singlicate; n = 1
Examples of molecules with documented %Inh follow.
Provide the reading as a plain figure in %.

INSERT INTO measurements (molecule, measurement_target, endpoint_label, unit_name, experimental_result) VALUES
  ('CC(=O)Nc1nc2cnc(Nc3cc(NC(=O)c4cccc(CCC#N)c4)ccc3C)nc2s1', 'TIE2', '%Inh', '%', 0);

Record for O=c1cc(N2CCOCC2)nc2n(Cc3cccc(Cl)c3Cl)ccn12 under target or system TIE2: %Inh reported as 0

TIE2 assay, molecule COc1ccc(Nc2nccc(-c3cccc(NC(=O)c4cc5cc(F)ccc5[nH]4)c3)n2)cc1 , recorded %Inh = 17

// molecule Cc1cc(N2Cc3ccccc3C2)nc(Nc2ccc(S(=O)(=O)N3CCOCC3)cc2)n1.Cl , assay TIE2, %Inh value: 0

Log: TIE2, molecule CCCc1ccc(S(=O)(=O)NC2CCN(c3ccnc(Nc4ccc(F)cc4)n3)C2)cc1 (centres unmarked) , %Inh = 0

----------
%Inh listing for selected compounds.
System: FLT3-autoinhibited
Conditions: concentration: 1 μM, replicates: in singlicate; n = 1
Note: unit % is implicit; provide only the numeric part.

# count of solved cases: 2
INSERT INTO measurements (compound, endpoint_label, experimental_result) VALUES
  ('COC(=O)c1c(-c2ccccc2)c2cc(C(=O)O)ccc2c(=O)n1Cc1ccccc1', '%Inh', 3),
  ('CC(C)(C)c1ccc(C(=O)Nc2cn3cc(Cl)ccc3n2)cc1', '%Inh', 0);

The recorded %Inh for entry Cc1cccc(-c2nc(C)cc(Nc3ccncc3)n2)n1 equals 0

compound CS(=O)(=O)c1ccc(-c2nc3n(c2-c2ccncc2)CCC3)cc1 , %Inh observed: 0

----------
Tested on: PCTK1
Construct: gene CDK16
Conditions: concentration: 1 μM, replicates: in singlicate; n = 1
Below, each of the molecules is paired with its reported %Inh value.
Provide the reading as a plain figure in %.

INSERT INTO results (molecule, measurement_target, endpoint_label, experimental_result) VALUES
  ('Cl.Oc1ccc(-c2nc(-c3ccccc3)[nH]c2-c2ccncc2)cc1', 'PCTK1', '%Inh', 4),
  ('Cn1cncc1-c1ccc2ncnc(Nc3ccc(OCc4ccccc4)cc3)c2c1', 'PCTK1', '%Inh', 0),
  ('Fc1cc(Cl)ccc1Nc1ccnc2cc(-c3ccc(CN4CCCCC4)o3)ccc12', 'PCTK1', '%Inh', 0),
  ('Cn1ccc2ncnc(Oc3ccc(NC(=O)Nc4ccccc4)cc3)c21', 'PCTK1', '%Inh', 1),
  ('Nc1ncnc2[nH]c(-c3ccccc3)nc12', 'PCTK1', '%Inh', 3),
  ('COc1ccc(Nc2nccc(-c3cccc(NC(=O)c4cc5cc(F)ccc5[nH]4)c3)n2)cc1', 'PCTK1', '%Inh', 1);

Input CN1C(=O)C(Nc2ccc(Cl)c(C(=O)O)c2)=C(c2ccc(Cl)cc2)C1=O . Output %Inh: 0

Form field %Inh, entry CN(C)CCN(C)C(=O)c1cc(-c2ccncc2)c(-c2ccc(Cl)c(O)c2)o1.Cl.Cl : 4

Field %Inh (entry CS(=O)(=O)c1ccc(-c2c(-c3ncn[nH]3)sc(N3CCOCC3)c2C#N)cc1 ) reads 0

----------
The entries below are paired with their reported %Inh.
Tested on: NEK10
Conditions: concentration: 1 μM, replicates: in singlicate; n = 1
Just the number in %, nothing appended.

// field: %Inh; key: Cc1ccc(NC(=O)Nc2cccc(Cl)c2)cc1-c1ccc(C(=O)Nc2ccncc2)cc1 [GSK1398468] ; value = 3

Noted for COC(=O)c1c(-c2ccccc2)c2cc(OC)ccc2c(=O)n1Cc1ccccc1 : its %Inh reads 0

The compound identified as Nc1nc(-c2nccs2)c(-c2ccnc3ccccc23)s1 [GW693542] registered its %Inh at 19

The compound listed as Cl.NC(=O)c1cccc(Nc2nccc(Nc3ccc(Oc4cccc(Cl)c4)c(Cl)c3)n2)c1 [GW659008] shows %Inh equal to 0

Record summary for COc1cccc(-c2cc(-c3c[nH]nc3-c3ccccn3)ccn2)c1 [GW680338] : reported %Inh = 4

Note to self: %Inh recorded for CS(=O)(=O)c1ccc(-c2c(-c3ncn[nH]3)sc(N3CCOCC3)c2C#N)cc1 was 36

COc1ccc(Nc2nccc(-c3cccc(NC(=O)c4cc5cc(F)ccc5[nH]4)c3)n2)cc1 [GSK1229782] has a reported %Inh of 40

response.value for Cn1cncc1-c1ccc2ncnc(Nc3ccc(OCc4ccccc4)cc3)c2c1 [GW320571] (field: %Inh) = 3

----------
# Lookup of reported %Inh keyed by entry
Tested on: TNK1
Conditions: concentration: 1 μM, replicates: in singlicate; n = 1
Lab book: enter the figure in %, no units written.

INSERT INTO measurements (molecule, unit_name, experimental_result) VALUES
  ('COc1ccccc1CNC(=O)c1cc(C(=O)c2ccccc2C)c[nH]1 [GSK364507]', '%', 0),
  ('Nc1ncnc2[nH]c(-c3ccccc3)nc12 [AH5015]', '%', 0),
  ('Cc1cccc(-c2nc(C)cc(Nc3ccncc3)n2)n1 [GSK257997]', '%', 0),
  ('O=C(Nc1ccc2c(c1)OCO2)NC1CCN(c2ccnc(Nc3ccc(F)cc3)n2)C1 (stereo not drawn) [GSK1379724]', '%', 16);

response.value for COc1cccc(-c2cc(-c3c[nH]nc3-c3ccccn3)ccn2)c1 [GW680338] (field: %Inh) = 0

%Inh in this record for CS(=O)(=O)c1ccc(-c2nc3n(c2-c2ccncc2)CCC3)cc1 [SKF-105942] : 0

Short answer for CC(C)(C)c1ccc(C(=O)Nc2cn3cc(Cl)ccc3n2)cc1 : %Inh was 30

// recorded %Inh for NC(=O)c1nnc2ccccc2c1N : 0

%Inh measured on O=c1cc(N2CCOCC2)nc2n(Cc3cccc(Cl)c3Cl)ccn12 [GSK2286295] = 8

----------
A collection of compounds and their measured %Inh
System: RSK2(Kin.Dom.2-C-terminal)
Construct: gene RPS6KA3
Conditions: concentration: 1 μM, replicates: in singlicate; n = 1
Field: numeric (%). Do not append units.

Please fill in: %Inh reported for Cc1cccc(-c2nc(Nc3ccncc3)c3ccccc3n2)n1 = 50

%Inh in this record for Cc1nnc(-c2ccc3occ(-c4ccc(S(C)=O)cc4)c3c2)[nH]1 (centres unmarked) : 5

Lab note: CC(C)(C)c1ccc(C(=O)Nc2cn3cc(-c4cccnc4)ccc3n2)cc1 gave %Inh of 0

----------
Reported %Inh is given for each of the following compounds.
System: PIP5K1A
Conditions: concentration: 1 μM, replicates: in singlicate; n = 1
Write down the numeric answer in % and omit the unit.

INSERT INTO measurements (compound, measurement_target, unit_name, experimental_result) VALUES
  ('Cc1cccc(-c2nc(Nc3cccc(C(N)=O)c3)c3ccccc3n2)n1 [GW876019]', 'PIP5K1A', '%', 12),
  ('O=C(Nc1ccccc1)Nc1cccc(Oc2ccc3nccn3n2)c1', 'PIP5K1A', '%', 9),
  ('COc1ccc(Nc2nccc(-c3cccc(NC(=O)c4cc5cc(F)ccc5[nH]4)c3)n2)cc1 [GSK1229782]', 'PIP5K1A', '%', 0);

// sample Cc1ccc(NC(=O)Nc2cc(C(C)(C)C)nn2-c2ccccc2)cc1 [GSK1014915] , its %Inh was 0

Form: compound = Cc1c(O)cccc1Nc1ccnc2ccc(C(F)(F)F)cc12.Cl [GW466413] ; %Inh = 32

get_value(item= COc1cc(Nc2nccc(N3CCC(NC(=O)Nc4cc(C)ccc4C)C3)n2)cc(OC)c1OC (centres unmarked) [GSK1379762] , readout=%Inh) returns 0

Value of measured %Inh for the entry Fc1cccc(COc2nnc(-c3ccc4c(c3)CCO4)o2)c1 : 31

Item: O=C(Nc1ccc2c(c1)OCO2)NC1CCN(c2ccnc(Nc3ccc(F)cc3)n2)C1 (centres unmarked) [GSK1379724] | %Inh: 34

The compound identified as COc1cccc(NC(=O)NC2CCN(c3ccnc(Nc4ccc(F)cc4)n3)C2)c1 (centres unmarked) [GSK1379721] registered its %Inh at 38
